Would you kindly list thermal shift delta Tm for each of these compounds?
System: LOC_OS03G50450-cb001
Test: thermal shift delta Tm vs DMSO control; higher = stronger stabilization (binding);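 note: purified Escherichia coli-expressed rice kinase domain construct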
Conditions: 12.5 µM; protein concentration 2 µM
Number in °C, nothing else.

Recorded thermal shift delta Tm for O=C1NC(=O)/C(=C/c2ccc3nccc(-c4ccncc4)c3c2)S1 , please? 0.79

Would you kindly repeat that for COc1ccc2c(c1)[C@]1(C[C@H]1c1ccc3c(/C=C/c4ccc(CN5C[C@@H](C)O[C@@H](C)C5)cc4)n[nH]c3c1)C(=O)N2 ? 0.66

// repeat for Cc1[nH]nc2ccc(-c3cncc(OC[C@@H](N)Cc4ccccc4)c3)cc12 and report 0.59

Again, but for CCn1c(C(=O)N(C2CC2)C2CC2)cc2c3c(ncn3C)c(Nc3cc(C)n(C)n3)nc21 0.66

Repeat with Cc1cc(Nc2cc(N3CCN(C)CC3)nc(/C=C/c3ccccc3)n2)n[nH]1 8.43

---

Tested on: LOC_OS01G51400-cb002
Experiment: thermal shift delta Tm vs DMSO control; higher = stronger stabilization (binding)
Conditions: 12.5 µM; protein concentration 2 µM
Property Name: thermal shift delta Tm
Write your answer as a measured quantity: the number, then the unit.

Looking for the measured thermal shift delta Tm of Cc1ccc(Nc2cc(N[C@@H]3CCCC[C@@H]3N)nnc2C(N)=O)nc1C , can you help? 0.36 °C

Next compound: Cc1cc(F)c(Nc2ncnc3cc(OCc4ccccc4)ccc23)cc1O 0.81 °C

Check CNC(=O)c1cc(Oc2ccc(NC(=O)Nc3ccc(Cl)c(C(F)(F)F)c3)c(F)c2)ccn1 too. 0.2 °C

Please give the result for Cc1cn(-c2cc(NC(=O)c3ccc(C)c(Nc4nccc(-c5cccnc5)n4)c3)cc(C(F)(F)F)c2)cn1 too. 0.48 °C

Repeat with COc1cc2c(Oc3ccc(NC(=O)C4(C(=O)Nc5ccc(F)cc5)CC4)cc3F)ccnc2cc1OCCCN1CCOCC1 0.19 °C

For Cc1cnc(Nc2ccc(N3CCN(C)CC3)cc2)nc1Nc1cccc(S(=O)(=O)NC(C)(C)C)c1 then? 0.64 °C

Further, for COc1cc(OC)cc(N(CCNC(C)C)c2ccc3ncc(-c4cnn(C)c4)nc3c2)c1 ? 0.26 °C

Entry to check: COc1cc2ncnc(Nc3ccc(Cl)cc3F)c2cc1OC 0.46 °C

Follow-up entry: COc1cc2c(c(OC)c1OC)-c1c(cc3c(c1OC)OCO3)CC(C)C(C)C2 (stereo not drawn) [Schisandrin B (Sch B)] 0.24 °C

Try this compound next: CC#CC(=O)Nc1ccc2ncnc(Nc3cccc(Br)c3)c2c1 0.38 °C

Try this compound too: O=C1NC(=O)/C(=C/c2ccc3c(c2)OC(F)(F)O3)S1 0.53 °C

C[C@]1(O)C[C@@H](c2nc(-c3ccc4ccc(-c5ccccc5)nc4c3)c3c(N)nccn32)C1 , same question. 0.44 °C

Input Cn1cc(-c2ccc3nnc(Sc4ccc5ncccc5c4)n3n2)cn1 0.08 °C

Similarly, CO[C@@H](C(=O)N1Cc2[nH]nc(NC(=O)c3ccc(N4CCN(C)CC4)cc3)c2C1)c1ccccc1 ? 0.01 °C

Try this compound next: Cc1c[nH]c(/C=C2\C(=O)Nc3ccccc32)c1CCC(=O)O 0.25 °C

Query C=CC(=O)Nc1ccc(CN2C(=O)N(c3cc(OC)cc(OC)c3)Cc3cnc(Nc4ccc(N5CCN(C)CC5)cc4)nc32)cc1 next 0.02 °C

Then COc1cc(Nc2ncc(F)c(Nc3ccc4c(n3)NC(=O)C(C)(C)O4)n2)cc(OC)c1OC ? 0.41 °C

And CNC(=O)c1ccccc1Nc1nc(Nc2ccc(N3CCOCC3)cc2OC)ncc1Cl ? 0.36 °C
